Assay: Antiproliferative activity against human PC3M cells after 40 hrs by MTT assay
Assay type: functional, cell-based
Conditions: PC-3M
measurement-name: IC50 (µM)
Just the number in µM, nothing appended.

Tell me the measured IC50 of COc1cc(OC)c2c(c1)C(=O)C1=C(COC(C)=C1)C2=O [DEHYDROHERBARIN] , please. 3.5

Ref: ChEMBL document CHEMBL1141347
